Values were extracted from the RNAGym collection of RNA variant scans (doi:10.1073/pnas.2313332121).

B1: TPR 5TU (parent)
chain: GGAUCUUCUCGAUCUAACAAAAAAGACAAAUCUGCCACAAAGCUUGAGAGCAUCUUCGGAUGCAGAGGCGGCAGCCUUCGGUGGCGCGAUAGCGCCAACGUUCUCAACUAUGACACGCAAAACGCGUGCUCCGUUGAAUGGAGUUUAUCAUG

Variants of: B1
TEST SUMMARY: polymerase ribozyme fitness, log enrichment relative to wild type (log ratio); higher = more active; in vitro selection for triplet polymerase activity
Fewer inactive variants are shown than the library holds.
Catalogue of variants with associated polymerase ribozyme fitness (log ratio)

// solved cases for polymerase ribozyme fitness (log ratio) follow
MUT | polymerase ribozyme fitness (log ratio)
C87A A147G | ≤ -4.2
A3G U6G U90G C103U G141C | ≤ -4.2
A3U C54U | -1.57
G11C A22U A30G A37C A91G C93A A98C C118G | ≤ -4.2
A20C A24U U44A G88A C93U | ≤ -4.2
C51U C69U C96G | -3.06
A28U C32G A41U A73G C85G G88U G136A | ≤ -4.2
A12C C129G | -3.9

// polymerase ribozyme fitness (log ratio) lookup, key: A30U G83U G88A U109C C125U G133C ≤ -4.2
